Provenance of the data: ChEMBL document CHEMBL3044699

System: Triticum aestivum
Experiment: Pre-emergence herbicidal activity against Triticum aestivum (wheat) assessed as reduction in length of the first leaf at 50 mol/ha relative to untreated control
Format: functional
Parameters: scale not given: the % may be the effect or the level left
measured_property: Activity (%)
Lab book: enter the figure in %, no units written.

// below: answered compounds
> print(dat)
                                   compound       study.target  measured.property  output.unit  number
1  O=Cc1ccc2no[n+]([O-])c2c1 [6-FORMYLBENZO[C][1,2,5]OXADIAZOLE1-OXIDE]  Triticum aestivum           Activity            %       2
2              [O-][n+]1onc(-c2ccccc2)c1CCl  Triticum aestivum           Activity            %       1
3   [O-][n+]1onc(-c2ccccc2)c1CNc1ccc(Br)cc1  Triticum aestivum           Activity            %       2
4       COC(=O)N/N=C/c1ccc2c(c1)no[n+]2[O-]  Triticum aestivum           Activity            %       1
5    COC(=O)N/N=C/c1c(-c2ccccc2)no[n+]1[O-]  Triticum aestivum           Activity            %       2

# Activity of Cc1c(C=O)no[n+]1[O-] = 1
